Where do the numbers come from? From patent US20230346760A1.

Molecular target: TcdB (Clostridioides difficile)
Sequence (P18177 1-543 limits assumed): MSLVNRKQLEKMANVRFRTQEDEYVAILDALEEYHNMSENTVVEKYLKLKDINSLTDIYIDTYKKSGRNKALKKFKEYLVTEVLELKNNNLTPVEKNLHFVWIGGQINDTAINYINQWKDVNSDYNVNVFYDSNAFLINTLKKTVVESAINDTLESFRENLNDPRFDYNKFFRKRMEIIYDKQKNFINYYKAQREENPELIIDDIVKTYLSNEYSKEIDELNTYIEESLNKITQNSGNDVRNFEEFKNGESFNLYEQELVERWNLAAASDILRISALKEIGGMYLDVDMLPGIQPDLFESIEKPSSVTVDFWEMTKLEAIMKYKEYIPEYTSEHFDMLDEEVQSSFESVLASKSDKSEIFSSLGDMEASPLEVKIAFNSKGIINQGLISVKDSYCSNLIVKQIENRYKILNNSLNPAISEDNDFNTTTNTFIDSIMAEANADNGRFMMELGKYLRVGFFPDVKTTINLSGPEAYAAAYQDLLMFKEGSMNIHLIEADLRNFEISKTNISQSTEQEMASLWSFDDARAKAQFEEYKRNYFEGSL
Assay: Kinetic inhibition of TcdB glucosyltransferase / UDP-glucose hydrolysis
Assay type: biochemical, Clostridium difficile
Conditions: in the presence of 2×Ki for UDP; read-out: kinetic Ki (apparent Ki)
OBSERVATION_TYPE: Ki (nM)
Respond with the bare value in nM.

Reported Ki for OC[C@H]1CNC[C@@H](O)[C@@H]1O : what is it?
290

----------
Molecular target: TcdA (Clostridioides difficile, UniProt P16154)
Sequence (P16154 whole entry, looked up): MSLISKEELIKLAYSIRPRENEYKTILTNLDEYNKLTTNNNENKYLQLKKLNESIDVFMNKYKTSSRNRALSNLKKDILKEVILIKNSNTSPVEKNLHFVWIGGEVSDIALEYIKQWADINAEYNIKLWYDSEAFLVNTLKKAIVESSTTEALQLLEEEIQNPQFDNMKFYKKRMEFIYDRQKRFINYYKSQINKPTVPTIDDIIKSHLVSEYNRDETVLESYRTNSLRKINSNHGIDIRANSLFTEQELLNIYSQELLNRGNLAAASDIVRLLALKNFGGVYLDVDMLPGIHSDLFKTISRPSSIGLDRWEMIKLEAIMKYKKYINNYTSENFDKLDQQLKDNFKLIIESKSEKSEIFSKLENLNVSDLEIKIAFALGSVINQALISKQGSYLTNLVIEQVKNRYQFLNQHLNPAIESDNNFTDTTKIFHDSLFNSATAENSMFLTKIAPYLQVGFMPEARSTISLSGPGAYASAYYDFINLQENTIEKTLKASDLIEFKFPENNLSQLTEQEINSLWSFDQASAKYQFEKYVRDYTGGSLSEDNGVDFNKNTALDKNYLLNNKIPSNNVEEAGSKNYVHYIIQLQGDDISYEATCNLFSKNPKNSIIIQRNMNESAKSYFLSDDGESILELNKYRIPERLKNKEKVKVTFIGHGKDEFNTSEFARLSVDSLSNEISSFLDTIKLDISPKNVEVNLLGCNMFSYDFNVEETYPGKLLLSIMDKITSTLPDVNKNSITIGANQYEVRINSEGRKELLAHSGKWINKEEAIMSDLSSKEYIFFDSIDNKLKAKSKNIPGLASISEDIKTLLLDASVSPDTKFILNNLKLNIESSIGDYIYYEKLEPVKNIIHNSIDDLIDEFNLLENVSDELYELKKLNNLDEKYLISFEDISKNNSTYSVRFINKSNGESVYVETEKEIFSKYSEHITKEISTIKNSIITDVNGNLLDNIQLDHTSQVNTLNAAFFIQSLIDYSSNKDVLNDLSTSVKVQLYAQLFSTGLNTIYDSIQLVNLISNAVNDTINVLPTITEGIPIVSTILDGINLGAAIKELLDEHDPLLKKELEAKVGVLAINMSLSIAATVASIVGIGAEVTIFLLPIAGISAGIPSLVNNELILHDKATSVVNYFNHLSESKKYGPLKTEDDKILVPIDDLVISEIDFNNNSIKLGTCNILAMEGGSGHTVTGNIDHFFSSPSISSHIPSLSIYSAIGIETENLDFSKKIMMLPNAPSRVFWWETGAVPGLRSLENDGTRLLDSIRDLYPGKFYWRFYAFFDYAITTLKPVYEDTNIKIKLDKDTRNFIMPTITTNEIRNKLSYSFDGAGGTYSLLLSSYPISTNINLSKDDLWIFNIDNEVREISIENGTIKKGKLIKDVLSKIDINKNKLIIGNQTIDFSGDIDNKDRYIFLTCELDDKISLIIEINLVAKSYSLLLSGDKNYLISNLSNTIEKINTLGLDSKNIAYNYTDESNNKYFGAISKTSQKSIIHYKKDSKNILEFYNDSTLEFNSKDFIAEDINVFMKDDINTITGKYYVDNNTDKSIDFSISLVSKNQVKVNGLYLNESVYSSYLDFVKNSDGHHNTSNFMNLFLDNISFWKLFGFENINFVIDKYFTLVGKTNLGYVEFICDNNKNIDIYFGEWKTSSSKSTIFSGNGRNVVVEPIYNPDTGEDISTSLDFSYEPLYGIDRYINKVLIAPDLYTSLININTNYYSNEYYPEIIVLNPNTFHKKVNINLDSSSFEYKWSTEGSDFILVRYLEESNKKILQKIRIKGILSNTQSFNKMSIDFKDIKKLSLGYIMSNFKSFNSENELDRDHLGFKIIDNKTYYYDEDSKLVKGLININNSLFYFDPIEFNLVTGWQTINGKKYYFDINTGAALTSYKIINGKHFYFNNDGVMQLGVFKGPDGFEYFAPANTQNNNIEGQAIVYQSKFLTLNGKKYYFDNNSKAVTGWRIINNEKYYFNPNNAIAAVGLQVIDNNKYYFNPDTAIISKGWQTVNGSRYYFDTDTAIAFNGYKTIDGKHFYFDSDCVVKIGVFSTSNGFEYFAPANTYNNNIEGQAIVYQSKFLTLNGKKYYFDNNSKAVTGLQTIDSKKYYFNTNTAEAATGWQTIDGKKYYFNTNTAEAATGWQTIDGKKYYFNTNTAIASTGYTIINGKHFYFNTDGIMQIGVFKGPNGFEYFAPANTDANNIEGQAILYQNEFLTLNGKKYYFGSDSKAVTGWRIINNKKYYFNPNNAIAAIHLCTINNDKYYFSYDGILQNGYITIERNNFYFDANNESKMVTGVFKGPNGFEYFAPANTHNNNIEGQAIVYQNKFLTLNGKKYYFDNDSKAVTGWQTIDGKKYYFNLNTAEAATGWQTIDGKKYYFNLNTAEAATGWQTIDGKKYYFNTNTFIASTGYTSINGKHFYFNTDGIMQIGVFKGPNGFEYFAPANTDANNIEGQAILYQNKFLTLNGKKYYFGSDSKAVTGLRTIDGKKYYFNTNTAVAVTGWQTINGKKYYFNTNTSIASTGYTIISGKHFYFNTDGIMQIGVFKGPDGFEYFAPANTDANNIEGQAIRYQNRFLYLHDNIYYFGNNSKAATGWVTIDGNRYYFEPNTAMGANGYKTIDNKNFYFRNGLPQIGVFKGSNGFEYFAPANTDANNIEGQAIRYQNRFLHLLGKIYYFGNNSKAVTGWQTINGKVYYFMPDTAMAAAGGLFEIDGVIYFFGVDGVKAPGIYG
OBSERVATION_TYPE: Ki (nM)
Respond with the bare value in nM.

Reported Ki for OC[C@H]1CNC(O)[C@@H](O)[C@@H]1O (stereo partly shown) : what is it?
200

----------
Molecular target: TcdB (Clostridioides difficile)
Test: Kinetic inhibition of TcdB glucosyltransferase / UDP-glucose hydrolysis
Format: biochemical, Clostridium difficile
Details: TcdB-UDP; read-out: Ki
OBSERVATION_TYPE: pKi
Answer as the number alone; pKi is minus log10 of concentration in mol/L.

Reported pKi for OC[C@H]1CNC(O)[C@@H](O)[C@@H]1O (stereo partly shown) : what is it?
5.40
